Reported GI50 values follow for various compounds
# Test system: SNB-78
# test_description: NCI tumour cell line growth inhibition, 48 h
Active and inactive are the calls of the source. Cut-off read from the data, not from the text of the source: active = GI50 up to about 1.1 µM and inactive = higher. Where a SMILES comes first, the peptide text is derived from it. [ ]: non-standard residue; d: D form. 2Nal = N[CH](Cc1ccc2ccccc2c1)C(=O)O
metric_name: GI50

>  <compound>
Nc1nc(NCCO)c(N=O)c(=O)[nH]1

>  <metric_name>
GI50

>  <recorded_value>
> 100 µM (inactive)

$$$$
>  <compound>
O=C1Cc2c([nH]c3ccccc23)-c2cc(Br)ccc2N1

>  <metric_name>
GI50

>  <recorded_value>
> 100 µM (inactive)

$$$$
>  <compound>
CC(/C=C/C(=O)c1sc(C(N)=S)nc1C)=C\c1ccccc1

>  <metric_name>
GI50

>  <recorded_value>
> 100 µM (inactive)

$$$$
>  <compound>
CNC1C(O)CC(OC2C/C=C(\C)C/C(C)=C/C=C/CCC(C)CNC(=O)/C=C/C=C/C2C)OC1C (stereo unspecified)

>  <metric_name>
GI50

>  <recorded_value>
1.66 µM (inactive)

$$$$
>  <compound>
O=C1NC(=O)C(C(=O)C(=O)Nc2ccc(Br)cc2)C(=O)N1

>  <metric_name>
GI50

>  <recorded_value>
> 100 µM (inactive)

$$$$
>  <compound>
CC(NC(=O)C(N)Cc1ccccc1)C(=O)NC(Cc1ccc(O)cc1)C(=O)NC(Cc1c[nH]c2ccccc12)C(=O)NC(CCCCN)C(=O)NC(C(=O)NC(C)C(=O)NC(Cc1ccc2ccccc2c1)C(N)=O)C(C)C (stereo unspecified) (H-FAYWKVA[2Nal]-NH2; configuration not given here)

>  <metric_name>
GI50

>  <recorded_value>
44.3 µM (inactive)

$$$$
>  <compound>
O=P(O)(O)C1CCCC(P(=O)(O)O)N1 (stereo unspecified)

>  <metric_name>
GI50

>  <recorded_value>
> 100 µM (inactive)

$$$$
>  <compound>
NC(=O)NNC(=O)NC12CC3CC(CC(C3)C1)C2

>  <metric_name>
GI50

>  <recorded_value>
> 100 µM (inactive)

$$$$
>  <compound>
CC(C)=NNC(=S)NC12CC3CC(CC(C3)C1)C2

>  <metric_name>
GI50

>  <recorded_value>
> 100 µM (inactive)

$$$$
>  <compound>
CN1NC(c2ccccc2)=C(C#N)C(=O)CC1c1ccc(Br)cc1 (stereo unspecified)

>  <metric_name>
GI50

>  <recorded_value>
48.8 µM (inactive)

$$$$
>  <compound>
C[C@]12CCC(=O)C(O)=C1CC[C@@H]1[C@@H]2CC[C@]2(C)C(=O)CC[C@@H]12 [FORMESTANE]

>  <metric_name>
GI50

>  <recorded_value>
> 100 µM (inactive)

$$$$

====

# System: SK-MEL-28
# test_description: NCI tumour cell line growth inhibition, 48 h
Active and inactive are the calls of the source. Rule as the data show it: active = GI50 up to about 1.1 µM and inactive = higher.
# reported GI50; entries follow
metric_name: GI50

>  <compound>
Cc1c(C)c(C)c(-n2c(=O)n(C)c(=O)n2C(C)(C)C)c(C)c1C

>  <recorded_value>
> 100 µM (inactive)

$$$$
>  <compound>
CCOC(=O)c1sc2c(C(=O)OCC)n3cc(C)cc(C)c3c2c1O

>  <recorded_value>
> 100 µM (inactive)

$$$$
>  <compound>
O=Cc1cc2c(o1)C(=O)c1ccccc1C2=O

>  <recorded_value>
0.405 µM (active)

$$$$
>  <compound>
COc1cccc2c1C(=O)c1c(O)c3c(c(O)c1C2=O)C[C@@](O)(C(C)=O)CC3OC1CC(OC2CC(N)C(O)C(C)O2)C(O)C(C)O1 (stereo not given in full)

>  <recorded_value>
> 72.4 µM (inactive)

$$$$
>  <compound>
Cc1cc2c(c(C(=O)NCC(=O)O)c1)Oc1c(cc(C)cc1C(=O)NCC(=O)O)S2

>  <recorded_value>
> 100 µM (inactive)

$$$$

====

Catalogue of GI50 values
# Test system: TK-10
# test_description: NCI tumour cell line growth inhibition, 48 h
The source made the active and inactive calls. No stated cut-off is given here; in the data, active = GI50 up to about 1.1 µM and inactive = higher.

>  <compound>
COc1ccc(OC2OC(COC(c3ccccc3)(c3ccc(OC)cc3)c3ccc(OC)cc3)C(O)C(O)C2O)cc1 (centres undefined)

>  <assayed_system>
TK-10

>  <GI50>
5.33 µM (inactive)

$$$$
>  <compound>
O=C(NCCNCCNC(=O)C(F)(F)F)C(F)(F)F

>  <assayed_system>
TK-10

>  <GI50>
> 100 µM (inactive)

$$$$
>  <compound>
COc1ccc(C(=O)CC2=Nc3nnc(CCCCCCCc4nnc5n4C(=O)C(CC(=O)c4ccc(OC)cc4)=N5)n3C2=O)cc1

>  <assayed_system>
TK-10

>  <GI50>
> 100 µM (inactive)

$$$$
>  <compound>
COC(=O)C1=CN(C2CCCCC2)C2(c3ccccc3)c3ccccc3C(=O)OC(=O)C12 (centres undefined)

>  <assayed_system>
TK-10

>  <GI50>
> 100 µM (inactive)

$$$$
>  <compound>
Cc1nc(-n2nc(-c3ccccc3)cc2-c2ccccc2)sc1C(/C=C\c1ccc([N+](=O)[O-])cc1)=N/NC(=S)NN

>  <assayed_system>
TK-10

>  <GI50>
37.2 µM (inactive)

$$$$
>  <compound>
C[C@@]12CCC3C1C=C1C(=O)c4cc(O)ccc4C(=O)[C@]1(O2)[C@@]3(C)C=O

>  <assayed_system>
TK-10

>  <GI50>
11.6 µM (inactive)

$$$$
>  <compound>
N#CC(C(=O)CCCC(=O)Nc1ccc(Cl)cc1Cl)c1ccccc1 (centres undefined)

>  <assayed_system>
TK-10

>  <GI50>
> 100 µM (inactive)

$$$$
>  <compound>
Brc1ccc(-c2nc(-c3ccc(Br)cc3)n(-c3ccccc3)n2)cc1

>  <assayed_system>
TK-10

>  <GI50>
> 100 µM (inactive)

$$$$
>  <compound>
CC(C)CC12CC3CCC(CNC1=O)C32C (centres undefined)

>  <assayed_system>
TK-10

>  <GI50>
> 100 µM (inactive)

$$$$

====

# System: NCI-H23
# test_description: NCI tumour cell line growth inhibition, 48 h
Calls of active or inactive are those of the source. No stated cut-off is given here; in the data, active = GI50 up to about 1.1 µM and inactive = higher.
metric_name: GI50

>  <compound>
COC(=O)c1c(O)ccc2c1c1c(n2Cc2ccccc2OC)C(=O)c2ccccc2C1=O

>  <recorded_value>
14.1 µM (inactive)

$$$$
>  <compound>
O=c1[nH]c(=O)n(C2CC(O)C(CO)O2)cc1C(F)(C(F)(F)F)C(F)(F)F (stereo unspecified)

>  <recorded_value>
> 100 µM (inactive)

$$$$
>  <compound>
CCOC(=O)C(Cc1ccccc1)NC(=O)OC(C)(C)C (stereo unspecified)

>  <recorded_value>
> 100 µM (inactive)

$$$$
>  <compound>
CC[n+]1c(/C=C/c2ccc(N(CCCl)CCCl)cc2)ccc2cc(Br)ccc21

>  <recorded_value>
2.79 µM (inactive)

$$$$
>  <compound>
O=c1cc(CNC2CC3CCC2C3)[nH]c(=O)[nH]1 (stereo unspecified)

>  <recorded_value>
> 100 µM (inactive)

$$$$
>  <compound>
CCN(CC)CCNC(=O)c1ccc(C)c(OCc2ccccc2)c1[N+](=O)[O-]

>  <recorded_value>
54.3 µM (inactive)

$$$$
>  <compound>
CC(NNC(=O)c1ccc[n+]([BH2-]C#N)c1)c1ccccc1 (stereo unspecified)

>  <recorded_value>
> 100 µM (inactive)

$$$$
>  <compound>
N#CC1=C(C#N)/C(=C(\C#N)C(C#N)C#N)N=C1N

>  <recorded_value>
32.1 µM (inactive)

$$$$
>  <compound>
COc1cc(/C=C/C(=O)c2c([O-])on[n+]2-c2ccccc2)ccc1O

>  <recorded_value>
2.69 µM (inactive)

$$$$
>  <compound>
COc1cc(S(=O)(=O)Nc2nc(-c3ccc(/N=C/c4ccccc4O)cc3)cs2)ccc1Cl

>  <recorded_value>
36.3 µM (inactive)

$$$$
>  <compound>
CCOC(=O)NNC(=O)C1CSC(c2ccccc2)N1C(C)=O (stereo unspecified)

>  <recorded_value>
> 100 µM (inactive)

$$$$
>  <compound>
COc1ccc(OC2OC(COC(c3ccccc3)(c3ccc(OC)cc3)c3ccc(OC)cc3)C(O)C(O)C2O)cc1 (stereo unspecified)

>  <recorded_value>
3.66 µM (inactive)

$$$$
>  <compound>
C[C@]12CCC(=O)C(O)=C1CC[C@@H]1[C@@H]2CC[C@]2(C)C(=O)CC[C@@H]12

>  <recorded_value>
> 100 µM (inactive)

$$$$
>  <compound>
Cc1ccc(/C=N/Nc2ccc3ccccc3n2)s1

>  <recorded_value>
18.6 µM (inactive)

$$$$
>  <compound>
O=C1Nc2cccc(Cl)c2/C1=C\c1c(Cl)nc2n1CCS2

>  <recorded_value>
> 100 µM (inactive)

$$$$
>  <compound>
C=C(CN)CO[Si](C)(C)C(C)(C)C

>  <recorded_value>
> 100 µM (inactive)

$$$$
>  <compound>
CCOC(=O)Nc1nn[nH]c1Cl

>  <recorded_value>
> 100 µM (inactive)

$$$$
>  <compound>
COc1cc2c(cc1OC)C(=O)N(c1ccc(OCCN3CCCC3)cc1)C2

>  <recorded_value>
> 100 µM (inactive)

$$$$
>  <compound>
COc1ccc(-n2c3c(c4cc(O)ccc42)Cc2ccccc2C3=O)cc1

>  <recorded_value>
> 100 µM (inactive)

$$$$
>  <compound>
COc1ccc(-c2cc(-c3cc(OC)c(OC)c(OC)c3)cc(-c3cc4ccccc4oc3=O)n2)cc1

>  <recorded_value>
7.87 µM (inactive)

$$$$
>  <compound>
COC(=O)OCC1OC(N2C(=O)NC(=O)C(I)C2N=[N+]=[N-])CC1OC(=O)OC (stereo unspecified)

>  <recorded_value>
> 100 µM (inactive)

$$$$
